Data origin, for the record: the supplement of paper PMC10477191

Tested on: Drosophila ezoana antennal basiconic sensillum ab2
procedure_text: odor-evoked OSN spike response (post minus pre-stimulus); higher = stronger neuronal excitation
condition_notes: odor dilution: 10^-4
test_readout: odor-evoked OSN spike response (spikes/s)
Express your answer in spikes/s, writing the number without its unit.

Solved cases below.
| compound | odor-evoked OSN spike response [spikes/s] |
| --- | --- |
| COC(=O)c1ccccc1 [methyl benzoate] | 55.9 |
| CCCC(=O)OCc1ccccc1 [benzyl butyrate] | 43.7 |
| CC(C)OC(=O)c1ccccc1 [isopropyl benzoate] | 91.2 |

Next, consider the following compound.
Return the recorded odor-evoked OSN spike response value; entry: CCOC(=O)c1ccccc1 [ethyl benzoate] 69.5
